- Species on record: Rattus norvegicus
- Assay Text: Open TG-GATES - Regimen: Daily Repeat
- Type: toxicity, organism-based, Sprague-Dawley
- Parameters: regimen Daily Repeat, gender Male, age 6 weeks
- Test Parameters: in vivo, po, 0 mg/kg, 72 h, tissue Plasma, route gavage, dose level Control, time 3 day
Result Type: Na (meq/L)

>  <Compound>
O=C(O)c1ccccc1Nc1ccccc1 [FENAMIC ACID]

>  <Measured>
143.8

$$$$
>  <Compound>
CCN(CC)C(=S)SSC(=S)N(CC)CC

>  <Measured>
142.6

$$$$
>  <Compound>
CC(S)C(=O)NCC(=O)O (configuration not stated) [TIOPRONIN]

>  <Measured>
140.8

$$$$
>  <Compound>
NS(=O)(=O)c1cc(C(=O)O)c(NCc2ccco2)cc1Cl [FUROSEMIDE]

>  <Measured>
142.6

$$$$
>  <Compound>
Nc1ccc(Cc2ccc(N)cc2)cc1

>  <Measured>
142.8

$$$$
>  <Compound>
COc1ccc([C@@H]2Sc3ccccc3N(CCN(C)C)C(=O)[C@@H]2OC(C)=O)cc1 [DILTIAZEM]

>  <Measured>
143.8

$$$$
>  <Compound>
CCO [ALCOHOL]

>  <Measured>
141

$$$$
>  <Compound>
O=c1ccc2ccccc2o1 [COUMARIN]

>  <Measured>
138.8

$$$$
>  <Compound>
CCCCNC(=O)NS(=O)(=O)c1ccc(C)cc1 [TOLBUTAMIDE]

>  <Measured>
143.6

$$$$
>  <Compound>
CN(CCOc1ccc(CC2SC(=O)NC2=O)cc1)c1ccccn1.O=C(O)/C=C\C(=O)O (configuration not stated) [ROSIGLITAZONE MALEATE]

>  <Measured>
140.4

$$$$
>  <Compound>
CN(C/C=C/C#CC(C)(C)C)Cc1cccc2ccccc12 [TERBINAFINE]

>  <Measured>
141.6

$$$$
>  <Compound>
CC(=O)[C@@]1(O)CC[C@H]2[C@@H]3C=C(Cl)C4=CC(=O)CC[C@]4(C)[C@H]3CC[C@@]21C [CHLORMADINONE]

>  <Measured>
141.6

$$$$
